assayRemarks: Agonist activity at androgen receptor expressed in mouse C2C12 cells assessed as osteoblast differentiation after 5 days
outcomeMeasure: pEC50
Just so you know, pEC50 here is -log10 of the concentration in molar units; reply with that number alone.

Entry "Cc1c(N[C@@H](c2nnc(-c3ccc(C#N)cc3)o2)[C@H](C)O)ccc(C#N)c1Cl" — recorded pEC50 = 10.00
